Tested on: XBP1(u)-luciferase splicing reporter in HepG2 hepatoma cells
Experiment: HepG2 XBP1 reporter assay (XBP1(u)-Luc)
Format: cell-based
Conditions: Homo sapiens, 6 h, six hours after addition of compound
From the text: HepG2 XBP1 Reporter Assay HepG2 hepatoma cells were transduced with a retrovirus encoding the cDNA for unspliced (u) XBP1, which contains a non-processed intron, fused to the cDNA for firefly luciferase. Upon induction of ER stress, the non-processed intron of XBP1(u) is spliced out by active IRE1alpha endonuclease. The resulting spliced (s) XBP1 is now in frame with luciferase which causes the production of active luciferase protein, resulting in bioluminescence […]
pIC50: −log10 of the molar value.

[
  {
    "COMPOUND": "Cc1cc(N2CCCOC[C@@H]2c2cc(O)c(C(=O)N(C)C)cc2Cl)nc(N)n1",
    "pIC50": "> 6.22"
  },
  {
    "COMPOUND": "Cc1cc(N2CCCOC[C@@H]2c2cc(O)c(C(=O)NC3CC3)cc2Cl)nc(N)n1",
    "pIC50": "≤ 5.30"
  },
  {
    "COMPOUND": "Cc1cc(N2CCCOC[C@@H]2c2ccc(NCC3CCOC3)cc2Cl)nc(N)n1 (stereo partly drawn)",
    "pIC50": "> 6.22"
  },
  {
    "COMPOUND": "Cc1cc(N2CCCOC[C@@H]2c2cc(O)c(C(=O)N3CCOCC3)cc2Cl)nc(N)n1",
    "pIC50": "> 6.22"
  },
  {
    "COMPOUND": "Cc1cc(N2CCCOC[C@@H]2c2cc3c(cc2Cl)OCC2(CC2)CO3)nc(N)n1",
    "pIC50": "5.70 to 6.22"
  },
  {
    "COMPOUND": "Cc1cc(N2CCCOCC2c2ccc(CS(C)(=O)=O)[nH]c2=O)nc(N)n1 (stereo not drawn)",
    "pIC50": "≤ 5.30"
  },
  {
    "COMPOUND": "Cc1cc(N2CCCOC[C@H]2c2ccc(C3CCN(C4COC4)CC3)cc2Cl)nc(N)n1",
    "pIC50": "≤ 5.30"
  },
  {
    "COMPOUND": "Cc1cc(N2CCCOC[C@@H]2c2ccc(C3CCN(C4COC4)CC3)cc2Cl)nc(N)n1",
    "pIC50": "5.70 to 6.22"
  },
  {
    "COMPOUND": "CCOc1cc(C2COCCCN2c2cc(C)nc(N)n2)c(Cl)cc1OCC(=O)OC (stereo not drawn)",
    "pIC50": "5.70 to 6.22"
  }
]
